Test system: NCI-H460
Assay: Cytotoxicity against human H460 cells
Format: functional
observable: GI50 (µM)
Numeric answer only, unit µM assumed.

Exam item: Consider the molecule CC(C)=CCC[C@](C)(O)[C@H]1CC=C(C)CC1 and give its measured GI50.
Marked response: 32.8

Exam item: Repeat for the following molecule: C[C@H](C/C=C\C(C)(C)OO)[C@H]1CC[C@@]2(C)[C@@H]3CC[C@H]4C(C)(C)[C@@H](O)CC[C@@]45C[C@@]35CC[C@]12C
Marked response: 67.4

Exam item: Repeat for the following molecule: COC(=O)C1=CO[C@H](C)[C@@H]2CN3CC[C@@]4(C(=O)Nc5ccccc54)[C@H]3C[C@@H]12
Marked response: 46.1

Exam item: Repeat for the following molecule: C=CCOc1cc(OC)c(C(=O)/C=C/c2ccc(OC)cc2)c(OCC=C)c1
Marked response: 52.3

Exam item: Repeat for the following molecule: C/C=C1/C(=O)O[C@]23C=C[C@@H]4C(C(=O)OC)=CO[C@H](O[C@@H]12)[C@@H]43
Marked response: 276

Exam item: Repeat for the following molecule: COc1ccc(CCC(=O)c2c(O)cc(O)cc2OC)cc1
Marked response: 148
